test: Hematology assays after oral gavage in CD-1 mice (Example 7); assay type: in vivo; conditions: 500 mg/kg oral gavage once daily for 4 weeks
Listed next: entries and their corresponding MCHC.
# unit: g/dL | format: bare number

>  <substance>
829994 (GGAGGCAGGGCCGCGA; 3-10-3 cEt gapmer, further chemistry not given here) [compound 829994]

>  <MCHC / g/dL>
29.5

$$$$
>  <substance>
790615 (CCAATGAGAATGCTTC; 3-10-3 cEt gapmer, further chemistry not given here) [compound 790615]

>  <MCHC / g/dL>
29.1

$$$$

Prompt: # input substance: 830037 (antisense CTATTGGCTGATCTGG; 3-10-3 cEt gapmer, further chemistry not given here) [compound 830037] ; wanted: its MCHC
Response: 28.9

Prompt: What does the data say about its MCHC? Entry: 830121 (AGAATCAAGCCCTGGC; 3-10-3 cEt gapmer, further chemistry not given here) [compound 830121]
Response: 29.1

Prompt: Data request, read-out MCHC, for 830025 (antisense TTTGTAAATCGAAAGC; 3-10-3 cEt gapmer, further chemistry not given here) [compound 830025]
Response: 28.5

Prompt: Fill blank: measured MCHC of the substance 798781 (CGTAAGATTCACAGCA; 3-10-3 cEt gapmer, further chemistry not given here) [compound 798781] is ____.
Response: 29.1
